# Tested on: RXF 393 renal
# ASSAY METHOD TEXT: NCI-60 one-dose screen, 48 h (100 = growth as untreated, 0 = no growth, -100 = all killed)
# TEST PARAMETERS: 10 µM unless noted
# Experimental: Cells are grown in 96 well plates and exposed to the test compound for 48 hours. Compounds are tested at a single concentration, which is 10^-5 M for most compounds. The reported endpoint is percent growth (GI% or GIPRCNT), where numbers from 0 - 100% represent growth inhibition, and numbers from -100% - 0 represent cell death. For example, a value of 40 represents 60% growth inhibition. A value of 0 means no net growth occurred over the course of the experiment. […]
About 83,000 compounds went through this panel and 20% of them were active in at least one assay; those are over-represented in the sample as a whole.
METRIC NAME: growth (%)
Record the value in %, omitting the unit from your answer.

C=C1C(=O)O[C@H]2[C@H]1CC/C(COC(=O)n1ccnc1C)=C\CC[C@@]1(C)O[C@@H]21 : 96.2

# get_value(readout= growth, system= RXF 393 renal) for CC(C(=O)O)N1C(N)=NNC1c1ccccc1O (stereo not drawn) 96.4

# get_value(readout= growth, system= RXF 393 renal) for c1ccc(CNCCN(CCNCc2ccccn2)Cc2ccc3ccccc3c2)nc1 45.1

# get_value(readout= growth, system= RXF 393 renal) for CC(C)[C@@H]1NC(=O)[C@]2(C)CSC(=N2)c2ccnc(c2)CNC(=O)C[C@@H](/C=C/CCS)OC1=O -61.7

====

# System: 786-0 renal
# ASSAY METHOD TEXT: NCI-60 one-dose screen, 48 h (100 = growth as untreated, 0 = no growth, -100 = all killed)
# TEST PARAMETERS: 10 µM unless noted
Compounds without any hit were thinned out: in the full panel of roughly 83,000, 20% have a hit.
METRIC NAME: growth (%)
Record the value in %, omitting the unit from your answer.

Take a look at these entries with their results.
CNC(=O)NN : 107
CCOC(=O)C1CN(Cc2ccccc2)C(=O)C1=O (stereo not given) : 105
CC(Cl)(CCl)CS(=O)(=O)c1ccc(Cl)cc1 (stereo not given) : 102
O=C1/C(=C/c2cccc3cnccc23)Cc2cc(F)ccc21 : 97.4

Let's switch to this compound now.
# get_value(readout= growth, system= 786-0 renal) for COc1ccc2c(c1)/C(=C/c1c(-c3cc(OC)c(OC)c(OC)c3Br)nc3sccn13)C(=O)N2 93.4

====

Below: a set of entries, each annotated with reported growth.
# Tested on: HCT-15 colon
# ASSAY METHOD TEXT: NCI-60 one-dose screen, 48 h (100 = growth as untreated, 0 = no growth, -100 = all killed)
# TEST PARAMETERS: 10 µM unless noted
This is part of a sample that, as a whole, favours compounds with a hit. Of some 83,000 tested, about 20% had one in any assay.
Record the value in %, omitting the unit from your answer.

COc1ccc(/C(Cl)=N/N=C(\Cl)c2cc(OC)c(OC)c(OC)c2)cc1OC(C)=O : 100
CCCCNc1cc(C(=O)O)cc(S(N)(=O)=O)c1Oc1ccccc1 : 108
O=C(NOC1OC(CO)C(O)C(O)C1O)Nc1ccccc1 (centres undefined) : 109
CCn1cc(C(=O)O)c(=O)c2cc(F)c(N3CCN(CC(=O)Nc4ccc(C(C)=O)cc4)CC3)cc21 : 104

// query growth value for entry Cc1ccc2nc(-c3ccc(-n4on4-c4ccc(/C=C/c5ccc(-n6on6-c6ccc(-c7nc8ccc(C)cc8s7)cc6)cc5S(=O)(=O)O)c(S(=O)(=O)O)c4)cc3)sc2c1 109

// query growth value for entry O=c1c2ccccc2[nH]n1Cc1ccc2c(c1)OCO2 95.7

// query growth value for entry COc1ccc(-c2c(C#N)cnc(N)c2-c2nc3cc(C)c(C)cc3[nH]2)cc1 60.3

// query growth value for entry COC1=C(OC)C(=O)C=CC1=O 108

// query growth value for entry COc1cc2ncn3c(=O)c4c5c(sc4nc3c2cc1OC)CCCCC5 107

====

# System: HCT-15 colon
# ASSAY METHOD TEXT: NCI-60 one-dose screen, 48 h (100 = growth as untreated, 0 = no growth, -100 = all killed)
# TEST PARAMETERS: 10 µM unless noted
About 83,000 compounds went through this panel and 20% of them were active in at least one assay; those are over-represented in the sample as a whole. Active and inactive are the calls of the source. The calls were made as follows: active = growth percent below 10; inactive = the rest.
METRIC NAME: growth

Take a look at these entries with their results.
COc1ccccc1P(c1ccccc1OC)c1ccccc1OC : 104% (inactive)
O=C(Cn1c2ccccc2c2ccncc21)N/N=C/c1cc(O)c(O)c(O)c1 : 105% (inactive)
C=CCn1c(SCC(=O)Nc2ccc(C(=O)/C=C/c3cc(OC)c(OC)c(OC)c3)cc2)nnc1-c1ccc(OC)cc1 : -1.54% (active)
O=C(O)c1cccc2oc(-c3ccccc3O)nc12 : 34.1% (inactive)
FC(F)(F)c1cn(CCN2CCOCC2)c2ncnc(Cl)c12 : 14.9% (inactive)
Nc1n[nH]c2cccc(C#Cc3cccc(NC(=O)c4cccc(C(F)(F)F)c4)c3)c12 : 30.2% (inactive)
O=C(N/N=C1\SCC(=O)N1c1ccccc1)c1cc(-c2cc3ccccc3o2)nn1-c1ccccc1 : 106% (inactive)
CCCCCn1ncc(-c2c(O)c(O)cc3c(O)c(-c4c(C)cc5c(-c6cnn(CCCCC)n6)c(O)c(O)cc5c4O)c(C)cc23)n1 : 14% (inactive)
CCOc1ccc(Cc2nccc3cc(OCC)c(OCC)cc23)cc1OCC : 59.8% (inactive)
Nc1nc(Nc2ccc(OCc3cccc(F)c3)cc2)c2c(n1)[nH]c1ccc(O)cc12 : -8.62% (active)

// query growth value for entry COc1ccc2c(c1)OC(N)=C(C#N)C2c1ccc(F)cc1 (stereo unspecified) 21.9% (inactive)

// query growth value for entry CC(=S)Nc1ccccc1 99.4% (inactive)

// query growth value for entry CCCOC(=O)c1ccc([N+](=O)[O-])o1 102% (inactive)

// query growth value for entry NN=C(c1ccc(Cl)cc1)c1ccc(Cl)cc1 90.4% (inactive)

// query growth value for entry O=C(NC(=S)Nc1ccc(Cl)cc1)c1ccccc1 93.6% (inactive)

// query growth value for entry COc1ccc(-c2nn(-c3ccc(NC(=O)Nc4ccc(Cl)c(C(F)(F)F)c4)cc3)cc2-c2ccncc2)cc1Cl 4.89% (active)

// query growth value for entry COc1ccc(Cl)cc1NC(=O)c1cc2c([nH]1)-c1nc(N)sc1CCC2 97.7% (inactive)

// query growth value for entry CC(C)CCC[C@@H](C)[C@H]1CC[C@H]2[C@@H]3CC=C4N(c5ccccc5)C(=O)CC[C@]4(C)[C@H]3CC[C@]12C 96.4% (inactive)

// query growth value for entry Cc1c(Cl)ccc2c(C(=O)Cl)cc(-c3ccccc3)nc12 101% (inactive)

// query growth value for entry O=[N+]([O-])c1cccc2cc(S(=O)(=O)O)ccc12 103% (inactive)

// query growth value for entry CCCCN(CCCC)c1ccc(C(=N)c2ccc(N(C)C)cc2)cc1 -58.7% (active)

// query growth value for entry COc1cc(/C=C/C(=O)c2c(C)n([O-])c3cc(C)c(C)cc3[n+]2=O)cc(OC)c1OC 51.7% (inactive)

// query growth value for entry COc1ccc(-c2nnc(NC(=O)CN3CCN(c4cc5c(cc4F)c(=O)c(C(=O)O)cn5C4CC4)CC3)s2)cc1OC 103% (inactive)

// query growth value for entry COc1ccc(/C=C/C(=O)c2ccc(-n3cc(CN4CCN(c5cc6c(cc5F)c(=O)c(C(=O)O)cn6C5CC5)CC4)nn3)cc2)cc1OC 33.8% (inactive)

// query growth value for entry CCCc1nn2c(CCC(=O)c3nc4ccc([N+](=O)[O-])cc4[nH]3)nnc2s1 100% (inactive)

// query growth value for entry Cc1cccc(NCS(=O)(=O)O)c1 101% (inactive)

====

# System: PC-3 prostate
# ASSAY METHOD TEXT: NCI-60 one-dose screen, 48 h
# TEST PARAMETERS: 10 µM unless noted
The panel holds about 83,000 compounds, 20% with a hit somewhere; the sample as a whole holds those more often. Calls of active or inactive are those of the source. How the source made its calls: active means growth percent below 10; inactive means the rest.
# output must be one of active, inactive

Here are 3 compounds together with their reported answers.
CCOc1cccc(Nc2nc(N)nc3[nH]c4ccc(O)cc4c23)c1 : inactive
Cc1ncc(CO)c(C(=O)O)c1O : inactive
O=C(Nc1ccc(-n2ccc3c(NC(=O)c4ccccc4)nccc32)cc1)Nc1cccc(C(F)(F)F)c1 : inactive

Query: recorded result category for CC(=O)c1cc2c(c(O)c1C)C(=O)C(=O)c1c(O)cccc1-2 in this test active

Query: recorded result category for CN(C)CC/C=C1\c2ccccc2Sc2ccc(Cl)cc21 in this test inactive

Query: recorded result category for Cc1nccc2c3ccc(OCc4cn(-c5ccc(Br)cc5)nn4)cc3n(CCCc3ccccc3)c12 in this test inactive

Query: recorded result category for CCN(CC)CCC(C(=O)O)(c1ccccc1)c1ccccc1 in this test inactive

Entry source: PubChem BioAssay (NCI)
